- target-desc: recombinant full-length USP7 (Homo sapiens, UniProt Q93009)
- Construct: A 25 μl reaction volume containing recombinant full-length USP7 (62 pM)
- Sequence (Q93009 whole entry): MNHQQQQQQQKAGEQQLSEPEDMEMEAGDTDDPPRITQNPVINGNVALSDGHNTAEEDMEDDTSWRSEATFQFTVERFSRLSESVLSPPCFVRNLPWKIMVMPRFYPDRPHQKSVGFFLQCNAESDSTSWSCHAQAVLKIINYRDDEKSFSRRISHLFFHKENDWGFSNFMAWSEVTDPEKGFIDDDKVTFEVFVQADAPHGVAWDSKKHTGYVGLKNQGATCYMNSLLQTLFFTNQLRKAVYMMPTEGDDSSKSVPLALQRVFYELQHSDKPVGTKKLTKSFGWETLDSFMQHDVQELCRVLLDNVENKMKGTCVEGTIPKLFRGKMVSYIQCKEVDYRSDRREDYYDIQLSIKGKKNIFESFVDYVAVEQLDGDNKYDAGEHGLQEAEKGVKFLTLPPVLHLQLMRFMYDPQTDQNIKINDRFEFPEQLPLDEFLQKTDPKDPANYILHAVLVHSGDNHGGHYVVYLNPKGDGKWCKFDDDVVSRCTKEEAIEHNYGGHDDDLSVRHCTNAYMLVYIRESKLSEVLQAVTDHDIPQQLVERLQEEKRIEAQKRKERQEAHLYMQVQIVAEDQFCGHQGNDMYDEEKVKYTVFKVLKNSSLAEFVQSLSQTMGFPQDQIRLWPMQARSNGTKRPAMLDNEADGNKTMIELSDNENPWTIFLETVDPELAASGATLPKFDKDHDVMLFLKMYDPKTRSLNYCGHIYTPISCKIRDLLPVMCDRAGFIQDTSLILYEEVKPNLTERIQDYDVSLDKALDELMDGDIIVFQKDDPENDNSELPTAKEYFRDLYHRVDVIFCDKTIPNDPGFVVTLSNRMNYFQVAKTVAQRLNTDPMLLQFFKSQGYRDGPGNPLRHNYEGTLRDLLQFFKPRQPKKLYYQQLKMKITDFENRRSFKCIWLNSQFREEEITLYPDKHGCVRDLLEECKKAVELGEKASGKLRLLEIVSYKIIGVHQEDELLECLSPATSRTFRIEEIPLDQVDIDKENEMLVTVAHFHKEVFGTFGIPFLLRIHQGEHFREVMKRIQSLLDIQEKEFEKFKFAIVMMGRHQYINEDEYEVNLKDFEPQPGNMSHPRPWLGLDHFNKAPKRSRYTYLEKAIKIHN
- method-description: USP7-mediated ubiquitin-rhodamine cleavage assay
- Assay type: biochemical
- measurement-setup: recombinant full-length USP7 62 pM; ubiquitin-rhodamine 100 nM; 30-minute incubation with compound, 1 hour reaction at room temperature; read-out: Potency: USP7 IC50
pIC50: −log10 of the molar value. Structures can show the parent of a compound that is named as a salt.
measured-quantity: pIC50

CCC(O)c1cc2nccc(-c3cc(Cl)cc(C)c3O[C@H]3CCCNC3)c2s1 (stereo partly shown) | 5.00 to 6.00
Cc1cc(Cl)cc(-c2ncnc3cc(CN4C(=O)C5C(C4=O)C5(C)C)sc23)c1O[C@H]1CCCN[C@@H]1C (stereo partly shown) | > 6.00
Cc1cc(Cl)cc(-c2ncnc3cc(CN4C(=O)C5C(C4=O)C5(C)C)sc23)c1O[C@@H]1C[C@@H]2C[C@H]1N(C)C2 (stereo partly shown) [Example 390, dihydrochloride] | > 6.00
Cc1cc(Cl)cc(-c2ccnc3cc(CN4C(=O)CC(C)(C)C4=O)sc23)c1O[C@H]1CCCNC1 | > 6.00
Cc1cc(Cl)cc(-c2ccnc3cc(Cn4c(=O)ccn(CC(F)(F)F)c4=O)sc23)c1O[C@@H]1CNCC[C@@H]1C | > 6.00
CCC(O)c1cc2nccc(-c3cc(Cl)cc(C)c3O[C@H]3C[C@H]4CC[C@@H](C3)N4)c2s1 (stereo partly shown) | 5.00 to 6.00

# ---- query molecule ----
-- ask // lookup pIC50 | system=recombinant full-length USP7 (Homo sapiens, UniProt Q93009) | key= `Cc1cc(C(F)(F)F)cc(-c2ccnc3cc(CN4C(=O)CCC4=O)sc23)c1OC1CCNCC1`
-- reply > 6.00

* * *

Measured IC50, listed per entry.
- target-desc: recombinant full-length USP7 (Homo sapiens, UniProt Q93009)
- Construct: A 25 μl reaction volume containing recombinant full-length USP7 (62 pM)
- method-description: USP7-mediated ubiquitin-rhodamine cleavage assay
- Assay type: biochemical
- measurement-setup: recombinant full-length USP7 62 pM; ubiquitin-rhodamine 100 nM; 30-minute incubation with compound, 1 hour reaction at room temperature; read-out: Potency: USP7 IC50

Past entries and their recorded results:
Cc1cc(Cl)cc(-c2ccnc3cc(Cn4c(=O)ccn(C5COC5)c4=O)sc23)c1O[C@H]1CCCNC1 [Example 5] | < 1000 nM
Cc1cc(Cl)cc(-c2ccnc3cc(Cn4c(=O)ccn(C)c4=O)sc23)c1O[C@H]1CCCNC1 [Example 161] | < 1000 nM
Cc1cc(Cl)cc(-c2ncnc3cc(CN4C(=O)C5C(C4=O)C5(C)C)sc23)c1OC1CNCC1(C)C (centres unmarked) [Example 371] | < 1000 nM
Cc1cc(Cl)cc(-c2ccnc3cc(CO)sc23)c1O[C@@H]1CNC[C@@H]1F [Example 57] | 1000 to 10000 nM
Cc1cc(C#N)cc(-c2ccnc3cc(CO)sc23)c1OCC1(C)CNC1 [Example 43] | 1000 to 10000 nM

-- ask Give recorded IC50 with recombinant full-length USP7 (Homo sapiens, UniProt Q93009) for the following compound: Cc1cc(Cl)cc(-c2ccnc3cc(Cn4c(=O)ccn(CC(F)(F)F)c4=O)sc23)c1OC1CNCC1(C)C (centres unmarked) [Example 346]
-- reply < 1000 nM

-- ask Cool, now CCC(O)c1cc2nccc(-c3cc(C#N)cc(C)c3OCC3(F)CNC3)c2s1 (centres unmarked) [Example 36]
-- reply 1000 to 10000 nM

-- ask And the next one, Cc1cc(Cl)cc(-c2ccnc3cc(CN4C(=O)C5CCCCC5C4=O)sc23)c1O[C@@H]1CNC[C@@H]1F (some centres unmarked) [Example 142] ?
-- reply < 1000 nM

* * *

- target-desc: recombinant full-length USP7 (Homo sapiens)
- Construct: A 25 μl reaction volume containing recombinant full-length USP7 (62 pM)
- method-description: USP7-mediated ubiquitin-rhodamine cleavage assay
- Type: biochemical
- measurement-setup: recombinant full-length USP7 62 pM; ubiquitin-rhodamine 100 nM; 30-minute incubation with compound, 1 hour reaction at room temperature; read-out: Potency: USP7 IC50
- Protocol: In the case of the USP7 deubiquitylating enzyme, the IC50 of an USP7 inhibiting compound is the concentration of the compound that inhibits 50% of the activity observed in a USP7-mediated ubiquitin-rhodamine cleavage assay. For the USP7 inhibitors disclosed herein, their potency was measured using the following test method. […]
measured-quantity: IC50

Below are worked cases with known answers.
CCC(O)c1cc2nccc(-c3cc(Cl)cc(C)c3OCC3(F)CNC3)c2s1 (stereo not shown) | 1000 to 10000 nM
Cc1cc(Cl)cc(-c2ccnc3cc(CO)sc23)c1O[C@@H]1CNC[C@@H]1N=[N+]=[N-] | 1000 to 10000 nM
CCC(O)c1cc2nccc(-c3cc(Cl)cc(C)c3O[C@H]3CCCN(C)C3)c2s1 (stereo partly shown) | 10000 to 30000 nM
Cc1cc(C#N)cc(-c2ccnc3cc(COC4=NS(=O)(=O)CC4)sc23)c1O[C@@H]1CNC[C@@H]1F | 1000 to 10000 nM
Cc1cc(Cl)cc(-c2ccnc3cc(CN4C(=O)C5CC5C4=O)sc23)c1O[C@@H]1CCNC[C@@H]1C (stereo partly shown) | < 1000 nM

-- ask What does the data say about its IC50? Entry: `Cc1cc(Cl)cc(-c2ccnc3cc(CN4C(=O)CC5(CCCC5)CC4=O)sc23)c1OC1CCNCC1`
-- reply < 1000 nM

-- ask Note, next up: Cc1cc(Cl)cc(-c2ncnc3cc(CN4C(=O)CC(C)C4=O)sc23)c1O[C@@H]1CNC[C@@H]1F (stereo partly shown)
-- reply < 1000 nM

* * *

- target-desc: recombinant full-length USP7 (Homo sapiens)
- Construct: A 25 μl reaction volume containing recombinant full-length USP7 (62 pM)
- method-description: USP7-mediated ubiquitin-rhodamine cleavage assay
- Format: biochemical
- measurement-setup: recombinant full-length USP7 62 pM; ubiquitin-rhodamine 100 nM; 30-minute incubation with compound, 1 hour reaction at room temperature; read-out: Potency: USP7 IC50
pIC50: −log10 of the molar value.
measured-quantity: pIC50

Check out these entries, answers already filled in.
Cc1cc(Cl)cc(-c2ccnc3cc(CO)sc23)c1OCC1CCCNC1 (centres unmarked) | 4.52 to 5.00
Cc1cc(Cl)cc(-c2ccnc3cc(CO)sc23)c1OC[C@@H]1CCN1 | 4.52 to 5.00
Cc1cc(Cl)cc(-c2ccnc3cc(CO)sc23)c1O[C@@H]1CC[C@H](N)C1 | 4.52 to 5.00
Cc1cc(Cl)cc(-c2ccnc3cc(CN4C(=O)CCC4=O)sc23)c1O[C@@H]1CCCNCC1 | > 6.00

-- ask Which measured pIC50 value corresponds to Cc1cc(Cl)cc(-c2ccnc3cc(CN4C(=O)C5C(C4=O)C5(C)C)sc23)c1O[C@H]1CCNC[C@@H]1F (some centres unmarked) ?
-- reply > 6.00

-- ask Proceed to Cc1cc(Cl)cc(-c2ccnc3cc(CN4C(=O)CCC4C(F)(F)F)sc23)c1OC1CCNCC1 (centres unmarked)
-- reply 5.00 to 6.00

-- ask Next up: `Cc1cc(C#N)cc(-c2ccnc3cc(CO)sc23)c1OCC1(C#N)CNC1`
-- reply 5.00 to 6.00

-- ask Please give the result for Cc1cc(Cl)cc(-c2ncnc3cc(CN4C(=O)C5C(C4=O)C5(C)C)sc23)c1OC1CC(N)C1 (centres unmarked) too.
-- reply > 6.00

* * *

- target-desc: recombinant full-length USP7 (Homo sapiens, UniProt Q93009)
- Construct: A 25 μl reaction volume containing recombinant full-length USP7 (62 pM)
- method-description: USP7-mediated ubiquitin-rhodamine cleavage assay
- Format: biochemical
- measurement-setup: recombinant full-length USP7 62 pM; ubiquitin-rhodamine 100 nM; 30-minute pre-incubation, 1 hour reaction at room temperature; read-out: Potency (USP7 IC50)
- Method: In the case of the USP7 deubiquitylating enzyme, the IC50 of an USP7 inhibiting compound is the concentration of the compound that inhibits 50% of the activity observed in a USP7-mediated ubiquitin-rhodamine cleavage assay. For the USP7 inhibitors disclosed herein, their potency was measured using the following test method. […]
pIC50: −log10 of the molar value.
Measured pIC50 accompanies every entry in the list below.

Example molecules with recorded pIC50:
Cc1cc(Cl)cc(-c2ccnc3cc(CN4C(=O)CCC4=O)sc23)c1OC1CC[C@H](C)NC1 (stereo partly shown) | > 6.00
Cc1cc(Cl)cc(-c2ccnc3cc(Cn4c(=O)ccn(CC(F)(F)F)c4=O)sc23)c1O[C@H]1CCCNC1 | > 6.00
Cc1cc(Cl)cc(-c2ccnc3cc(Cn4c(=O)ccn(CC(F)(F)F)c4=O)sc23)c1O[C@H]1CCNC[C@@H]1C | > 6.00
Cc1cc(Cl)cc(-c2ncnc3cc(Cn4c(=O)ccn(CC(F)(F)F)c4=O)sc23)c1O[C@H]1CCCNC1 | > 6.00
Cc1cc(Cl)cc(-c2ccnc3cc(CN4C(=O)CCC4=O)sc23)c1O[C@H]1CCCN(CC(=O)O)C1 | > 6.00
Cc1cc(Cl)cc(-c2ccnc3cc(Cn4c(=O)ccn(C)c4=O)sc23)c1OC1CCCN(CCC(F)(F)F)C1 (stereo not shown) | > 6.00
Cc1cc(Cl)cc(-c2ccnc3cc(Cn4c(=O)ccn(C)c4=O)sc23)c1O[C@@H]1CNC[C@@H](F)C1 | > 6.00
Cc1cc(Cl)cc(-c2ccnc(CCCN3C(=O)CCC3=O)c2)c1OC1CNC[C@@H]1F (stereo partly shown) | 5.00 to 6.00
CC[C@@H]1C[C@H](Oc2c(C)cc(Cl)cc2-c2ccnc3cc(Cn4c(=O)ccn(CC(F)(F)F)c4=O)sc23)CCN1 | > 6.00
Cc1cc(Cl)cc(-c2ccnc3cc(Cn4c(=O)ccn(C)c4=O)sc23)c1O[C@@H]1CNCC[C@@H]1F | > 6.00

-- ask What measured pIC50 goes with `Cc1cc(Cl)cc(-c2ccnc3cc(Cn4c(=O)ccn(CC(F)(F)F)c4=O)sc23)c1O[C@@H]1CCCN[C@@H]1C` ?
-- reply > 6.00

-- ask Entry to check: `Cc1cc(Cl)cc(-c2ccnc3cc(Cn4c(=O)ccn(C)c4=O)sc23)c1O[C@H]1CCCN(C)CC1`
-- reply > 6.00

-- ask What do you have for `Cc1cc(Cl)cc(-c2ccnc3cc(Cn4c(=O)ccn(C(C)C)c4=O)sc23)c1O[C@@H]1CNC[C@@H]1F` ?
-- reply > 6.00

-- ask Field entry: `Cc1cc(Cl)cc(-c2ccnc3cc(Cn4c(=O)ccn(C)c4=O)sc23)c1O[C@H]1CCN[C@@H](C)C1`
-- reply > 6.00
